Data origin: PubChem BioAssay

# targetSystem: NADPH oxidase 2 (Homo sapiens) (UniProt P04839)
# Sequence (P04839 whole entry, looked up): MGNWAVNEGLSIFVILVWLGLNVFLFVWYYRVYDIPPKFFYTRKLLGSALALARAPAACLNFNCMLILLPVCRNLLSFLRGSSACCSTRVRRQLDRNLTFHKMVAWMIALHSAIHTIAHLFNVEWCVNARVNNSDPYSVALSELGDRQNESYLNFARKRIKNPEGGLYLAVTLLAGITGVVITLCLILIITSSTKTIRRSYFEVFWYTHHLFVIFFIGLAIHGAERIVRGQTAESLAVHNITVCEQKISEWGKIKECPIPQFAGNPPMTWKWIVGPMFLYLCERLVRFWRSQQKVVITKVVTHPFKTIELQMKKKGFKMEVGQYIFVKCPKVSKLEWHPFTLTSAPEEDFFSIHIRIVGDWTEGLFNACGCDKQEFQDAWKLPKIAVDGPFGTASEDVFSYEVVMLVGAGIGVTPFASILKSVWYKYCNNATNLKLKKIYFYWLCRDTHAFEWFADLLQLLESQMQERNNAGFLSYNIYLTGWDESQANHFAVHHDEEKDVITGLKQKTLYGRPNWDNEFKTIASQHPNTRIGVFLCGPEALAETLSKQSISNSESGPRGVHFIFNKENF
# assayText: NOX2-dependent H2O2 signal modulators, primary screen, NOX inhibitor project, cell-based, HEK293-NOX2, PMA-stimulated, Amplex Red fluorescence (AID 1159); further: test concentration not given here
# assayContext: 45 min, higher = more signal, called active from +8 up or from −8 down
observable: z-score
Write no unit; give the number alone.

Recorded z-score of C=C(/C(=C/C[C@@H](OC(=O)c1ccncc1)c1cccc(OCCO)c1)c1cnc2ccccc2c1)C(C)C , please.
-1.34

Another compound to check: COCCOC(=O)N1C(=O)[C@@]2(c3ccccc31)[C@H](c1ccccc1OCCO)N1[C@H](c3ccccc3)[C@H](c3ccccc3)OC(=O)[C@H]1[C@@H]2C(=O)N1CCCCCCC1
0.168

Another compound to check: C=CCN1C(=O)[C@@]2(O[C@@H](CCO)[C@H]([Si](C)(C)c3ccc(OC)cc3)[C@H]2C)c2cc(N3CCOC3=O)ccc21
-2.41

Another compound to check: C=C[C@@H](OC)[C@H](OC(=O)Nc1ccc(OC)cc1)c1ccc(OC)c(O)c1
-2.52

Another compound to check: COc1cc2c(cc1O)C(c1ccc(CN3CCCC3)cc1)N(C)CC2 (centres undefined)
-1.63

Another compound to check: COc1ccc([Si](C)(C)[C@@H]2[C@@H](CC(=O)N3Cc4ccccc4C[C@H]3CO)O[C@]3(C(=O)N(Cc4ccc(N5CCC5=O)cc4)c4ccccc43)[C@H]2C)cc1
0.669

Another compound to check: COCCOC(=O)N1C(=O)[C@@]2(c3ccccc31)[C@H](c1ccc(OCCO)cc1)N1[C@H](c3ccccc3)[C@H](c3ccccc3)OC(=O)[C@H]1[C@@H]2C(=O)N1CCCCCCC1
0.918

Another compound to check: C=C(/C(=C/C[C@H](OC(=O)c1ccncc1)c1cccc(OCCO)c1)c1cnc2ccccc2c1)C(C)C
-4.67

Another compound to check: O=C1C2C=CC(C(O)c3cccc(O)c3)N(Nc3ccccc3)C2C(=O)N1c1ccccc1 (centres undefined)
-3.44

Another compound to check: COc1ccc([Si](C)(C)[C@@H]2[C@@H](CC(=O)N3Cc4ccccc4C[C@H]3CO)O[C@]3(C(=O)N(c4ccccc4)c4ccccc43)[C@H]2C)cc1
0.651

Another compound to check: COc1ccc(C(O)C2C=CC3C(=O)N(c4ccccc4)C(=O)C3N2Nc2ccccc2)cc1 (centres undefined)
-2.06

Another compound to check: O=C1C2C=CC(C(O)c3cc(C(F)(F)F)cc(C(F)(F)F)c3)N(Nc3ccccc3F)C2C(=O)N1c1ccccc1 (centres undefined)
-0.648

Another compound to check: COC(=O)C(CC#Cc1ccc2c(c1)[C@]1(C(=O)N2)[C@H](c2ccc(OCCO)cc2)N2[C@H](c3ccccc3)[C@H](c3ccccc3)OC(=O)[C@H]2[C@@H]1C(=O)N1CCN(c2ncccn2)CC1)C(=O)OC
1.46

Another compound to check: CCOC(=O)C1=C[C@@H](C(C)(C)C)N(S(=O)(=O)c2ccc(C)cc2)[C@H]1c1cccc(Cl)c1
-0.789

Another compound to check: NC(=O)[C@H]1[C@@H]2C(=O)O[C@@H](c3ccccc3)[C@@H](c3ccccc3)N2[C@@H](c2ccc(O)cc2)[C@]12C(=O)Nc1ccccc12
-0.741

Another compound to check: O=c1cccc(-c2ccc(F)cc2)o1
0.227

Another compound to check: O=C1C2C=CC(C(O)C=Cc3ccc([N+](=O)[O-])cc3)N(Nc3ccccc3)C2C(=O)N1c1ccccc1 (centres undefined)
-1.72

Another compound to check: CC(C)C[C@@H]1NC(=O)[C@@H]2C[C@H](C(=O)NCCCCCC[N+](C)(C)C)[C@H](c3cccc(OCCO)c3)N2C1=O
2.3

Another compound to check: CO[C@H]1O[C@H](CO)[C@@H](OC(=O)CCc2ccccc2)[C@H](OC(=O)c2cc3ccccc3[nH]2)[C@H]1OC(=O)c1cc2ccccc2[nH]1
-0.601

Another compound to check: CC(C)C(CO)N1C(=O)[C@@H]2[C@H]3C(=O)OCC=C[C@H]3OC23C=CCN(C(C)(C)C)C(=O)[C@@H]13 (some centres undefined)
0.997

Another compound to check: C=CCN1C(=O)[C@]2(O[C@H](CCO)[C@@H]([Si](C)(C)c3ccc(OC)cc3)[C@@H]2C)c2cc(NC(=O)c3ccc(OC)cc3)ccc21
-3.97

Another compound to check: Cc1cccc([C@H]2C[C@H]3C(Br)=C[C@@H]2C(=O)[C@]32CO2)c1
0.7

Another compound to check: NC(=O)N1C(=O)C2C(C1=O)C1C=C(CCCO)C2C(C2CC2)N1Cc1cccc(OC(F)(F)F)c1 (centres undefined)
0.699

Another compound to check: C=C(CCCC)C(=O)CC[C@@H](OC(=O)c1cccnc1)c1ccc(OCCO)cc1
-1.3

Another compound to check: CC(C)CNC(=O)[C@@]1(c2ccc([N+](=O)[O-])cc2)CC(=O)N(C2CCCCC2)[C@@H]1c1ccc(CO)cc1
0.382

Another compound to check: COc1ccc(C#Cc2ccc3c(c2)[C@]2(C(=O)N3)[C@H](C(=O)Nc3nc4ccccc4s3)[C@H]3C(=O)O[C@H](c4ccccc4)[C@H](c4ccccc4)N3[C@@H]2c2ccccc2OCCO)cc1
1.91

Another compound to check: CC(C)=CCCC(C)=CC(O)C1C=CC2C(=O)N(c3ccccc3)C(=O)C2N1Nc1ccccc1F (centres undefined)
-0.199

Another compound to check: CC(C)C[C@@H]1NC(=O)CNC(=O)[C@@]23C(=O)N[C@@H](Cc4ccccc4)C2[C@H](C)[C@@]2(C)O[C@H]2C3/C=C/C/C=C\CNC1=O (some centres undefined)
0.217

Another compound to check: O=C1[C@@]23C=C(Br)[C@H](C[C@@H]2COC3)[C@@]12CO2
0.249

* * *

# assayText: cell viability in Huh7 cells, primary screen, cytotoxicity control for HCV replication inhibitor project, CellTiter-Glo luminescence, basal, 48 h (AID 1143);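 further: Huh7 hepatoma cells carrying a hepatitis C replication reporter with no stimulus; test concentration not given here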
# assayContext: Huh7 HCV replicon, higher = more signal, called active from +8 up or from −8 down
observable: z-score
Write no unit; give the number alone.

Recorded z-score of O=C1OCCC/C=C\[C@H]2OC34C=CCN(c5ccc6ccccc6c5)C(=O)[C@H]3N(CCCO)C(=O)[C@@H]4C12 (stereo not given in full) , please.
0.187

Another compound to check: O=c1cccc(-c2ccco2)o1
-0.768

Another compound to check: COCCOC(=O)N1C(=O)[C@@]2(c3cc(C#CC4(O)CCCCCC4)ccc31)[C@H](c1ccc(OCCO)cc1)N1[C@H](c3ccccc3)[C@H](c3ccccc3)OC(=O)[C@H]1[C@@H]2C(=O)Nc1nc2ccccc2s1
-1.39

Another compound to check: COC(=O)C(CC#Cc1ccc2c(c1)[C@]1(C(=O)N2)[C@H](c2ccc(O)cc2)N2[C@H](c3ccccc3)[C@H](c3ccccc3)OC(=O)[C@H]2[C@@H]1C(=O)N1CCCCCCC1)C(=O)OC
-3.72

Another compound to check: CN(C)C(=O)[C@]1(CCS(=O)(=O)c2ccccc2)N=C(c2ccc(OCCCO)cc2)O[C@@H]1c1ccccc1
-2.87

Another compound to check: C=CCNC(=O)[C@H]1[C@@H]2C(=O)O[C@@H](c3ccccc3)[C@@H](c3ccccc3)N2[C@@H](c2ccc(OCCO)cc2)[C@]12C(=O)Nc1ccc(C#CCNC(N)=O)cc12
-0.384

Another compound to check: C=CCNC(=O)[C@@H]1[C@H]2C(=O)O[C@H](c3ccccc3)[C@H](c3ccccc3)N2[C@H](c2ccc(OCCO)cc2)[C@@]12C(=O)N(C(=O)OCCOC)c1ccc(C#CCCO)cc12
-3.32

Another compound to check: C=C[C@@H](C)[C@H](O)c1ccc(OCCO)cc1
-0.104

Another compound to check: COc1cc(NN2C(C(O)C3CCCCC3)C=CC3C(=O)N(c4ccccc4)C(=O)C32)cc(OC)c1OC (stereo not given)
-2.88

Another compound to check: O=C1C[C@@](C(=O)NCc2ccccc2)(c2ccc([N+](=O)[O-])cc2)[C@@H](c2ccc(CO)cc2I)N1CC12CC3CC(CC(C3)C1)C2
-5.74

Another compound to check: CCN(CC)c1ccc(N2CC=CC34O[C@@H]5C=CCCOC(=O)C5[C@H]3C(=O)N(CCO)[C@@H]4C2=O)cc1 (stereo not given in full)
-0.055

Another compound to check: CN(C)C(=O)[C@@]1(Cc2ccccc2N=[N+]=[N-])N=C(c2ccc(OCCCO)cc2)O[C@H]1c1ccccc1
-4.41

Another compound to check: C=CC1c2cc(O)c(OC)cc2CCN1Cc1ccc([N+](=O)[O-])o1 (stereo not given)
-0.244

Another compound to check: CCC(CC)C(O)C1C=CC2C(=O)N(c3ccccc3)C(=O)C2N1Nc1ccc([N+](=O)[O-])cc1 (stereo not given)
0.0373

Another compound to check: COC(=O)C1N=C(c2ccc(OCCCO)cc2)N(c2ccccc2)O1 (stereo not given)
0.255
